Experiment: D54 reporter luminescence gain compounds – D54 ERlucT cells, set 2, N-linked glycosylation inhibitor project, primary screen (AID 588692);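 further: luciferase carries N-glycosylation sites so blocking glycosylation raises the light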
Details: D54 ERlucT glycosylation luciferase reporter, 24 h; at 12.5 µM; percent of 100 nM tunicamycin response
Out of some 360,000 compounds screened, about 830 (0.23%) were called active.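 How the source made its calls: active means mean luciferase reporter signal, scaled so untreated is 0 and the glycosylation-blocking control 100, at or above a set limit in every replicate; inconclusive means mean reaches the limit but not every replicate does; inactive means mean below the limit.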 What follows is part of a selection rich in actives, with near analogues and random picks from the rest.
Classes used: Y = active, N = inactive

                                   compound  group_label
0  CC1(C)Cc2c(cnn2-c2cccc(F)c2)C(NC(=O)c2cc[n+]([O-])cc2)C1 (stereo not drawn)            N
1  COC(=O)c1ccc(C(=O)NC2CC(C)(C)Cc3c2cnn3-c2ccc(F)cc2)nc1 (stereo not drawn)            Y
2  Cc1cc(C(=O)NC2CC(C)(C)Cc3c2cnn3-c2ccccc2)n[nH]1 (stereo not drawn)            N
